- System: HTT mRNA
- ASSAY_EXPLANATION: RT-qPCR splicing assay monitoring HTT canonical (CJ) and alternative (AJ) junction mRNA in A673 or K562 cells
- Type: cell-based
- PARTICULARS: decrease in CJ mRNA, 24 hours compound treatment, top dose 10 uM, read-out: HTT CJ AC50
Listed here: items and their measured AC50.

# MOLECULE, AC50
records = [
    ("COc1nc(-c2ccc(N(C)[C@@H]3C[C@H]4CC[C@@H](C3)N4)nn2)cc(F)c1-c1cn[nH]c1 [Compound 268]", "< 0.1 µM"),
    ("COc1nc(-c2ccc(OC3CC(C)(C)NC(C)(C)C3)nn2)ccc1-c1cnn(C)n1 [Compound 258]", "0.1 to 1 µM"),
    ("COc1nc(-c2ccc(OC3CC(C)(C)NC(C)(C)C3)nn2)ccc1-c1cnn(C)c1 [Compound 245]", "0.1 to 1 µM"),
    ("CN(c1ccc(-c2ccc(-c3cn[nH]c3)c(C(F)(F)F)n2)nn1)[C@@H]1C[C@H]2CC[C@@H](C1)N2 [Compound 236]", "> 10 µM"),
    ("COc1nc(-c2ccc(N(C)[C@@H]3CCN[C@H](C)C3)nn2)ccc1-c1cn[nH]c1 [Compound 136]", "1 to 10 µM"),
    ("CN(c1ccc(-c2ccc(-n3cccn3)c(=O)[nH]2)nn1)[C@@H]1C[C@H]2CC[C@@H](C1)N2 [Compound 130]", "0.1 to 1 µM"),
]

Next:
input: Data request, read-out AC50, for CN(c1ccc(-c2ccc(-c3cn[nH]c3)c(Cl)n2)nn1)[C@@H]1C[C@H]2CC[C@@H](C1)N2 [Compound 250]
output: < 0.1 µM

----------
- Test system: SMN2
- ASSAY_EXPLANATION: Gene panel canonical junction RT-qPCR assay: SMN2
- Type: cell-based
- PARTICULARS: read-out: SMN2 (IC50, decrease in CJ mRNA levels)
pIC50: −log10 of the molar value.
VALUE_TYPE: pIC50

Consider the worked cases shown below.
# SMILES_TEXT, pIC50
measured = [
    ("COc1nc(-c2ccc(N(C)[C@@H]3C[C@H]4CC[C@@H](C3)N4)nn2)ccc1-n1cccn1", "6.00 to 7.00"),
    ("COc1nc(-c2ccc(N(C)[C@@H]3CCN[C@H](C)C3)nn2)ccc1-c1cn[nH]c1", "6.00 to 7.00"),
    ("CN(c1ccc(-c2ccc(-n3cccn3)c(=O)[nH]2)nn1)[C@@H]1C[C@H]2CC[C@@H](C1)N2", "5.00 to 6.00"),
    ("Cc1nc(-c2ccc(N(C)[C@@H]3C[C@H]4CC[C@@H](C3)N4)nn2)ccc1-c1cn[nH]c1", "6.00 to 7.00"),
    ("CN(c1ccc(-c2ccc(-c3cn[nH]c3)cn2)nn1)[C@@H]1C[C@H]2CC[C@@H](C1)N2", "< 5.00"),
]

input: Need pIC50 of `COc1nc(-c2ccc(N(C)[C@@H]3C[C@H]4CC[C@@H](C3)N4)nn2)ccc1-c1cn[nH]c1` , thanks.
output: > 7.00

input: So what does the record say about pIC50 for `COc1cc(-c2ccc(N(C)[C@@H]3C[C@H]4CC[C@@H](C3)N4)nn2)ccc1-c1cn[nH]c1` ?
output: > 7.00

input: Requested read-out: pIC50. Entry: `COc1nc(-c2ccc(N(C)[C@@H]3C[C@H]4CC[C@@H](C3)N4)nn2)ncc1-c1cn[nH]c1`
output: 5.00 to 6.00
